# System: SK-MEL-5
# protocol_notes: NCI tumour cell line growth inhibition, 48 h
Active and inactive are the calls of the source. Rule as the data show it: active = GI50 up to about 1.1 µM and inactive = higher.
Choose one outcome from this list and give only that: yes (1) for active, no (0) for inactive

Use these answered entries as a reference point.
{"columns": ["compound", "test_system", "class_assignment"],
 "data": [
  ["Cc1cccc(C)c1NC(=O)/C(=N/NC(N)=S)C(C)C(=O)c1ccc(Cl)cc1 (stereo unspecified)", "SK-MEL-5", "no (0)"],
  ["COc1ccccc1NC(=O)CC(=O)n1nc(C)c(/N=N/c2ccccc2Cl)c1C", "SK-MEL-5", "no (0)"],
  ["CN1CN(c2ccccc2)C2(CCN(CCCN(C)c3ccc(F)cc3)CC2)C1=O", "SK-MEL-5", "no (0)"],
  ["Cc1c(C(=O)OCc2ccccc2)[n+]([O-])c2cc(F)c(F)cc2[n+]1[O-]", "SK-MEL-5", "yes (1)"],
  ["CC(C)=CCC/C(C)=C/CCC1(C)C2COC(=O)C21 (stereo unspecified)", "SK-MEL-5", "no (0)"]
]}

Input: Look up the recorded call for `Cc1nc2c(n1CCO)C(=O)c1ccccc1C2=O` in this test.
Output: no (0)

* * *

# Test system: MDA-N
# protocol_notes: NCI tumour cell line growth inhibition, 48 h
Active and inactive are the calls of the source. Rule as the data show it: active = GI50 up to about 1.1 µM and inactive = higher.
Some compounds, each annotated with its measured GI50.

{"columns": ["compound", "test_system", "GI50"],
 "data": [
  ["O=C1C(Br)=C(c2ccccc2)O/C1=C/C(=O)c1ccc(Br)cc1", "MDA-N", "15.5 µM (inactive)"]
]}

Please fill in: GI50 reported for NC(=O)CCC(NC(=O)c1c2ccccc2nc2ccccc12)C(=O)O (centres undefined) = > 100 µM (inactive)

Please fill in: GI50 reported for COc1cc2c(cc1O)CCN[C@@]21CS[C@H]2c3c(OC(C)=O)c(C)c4c(c3C(COC1=O)N1C2C2c3c(cc(C)c(OC)c3O)CC([C@@H]1O)N2C)OCO4 (some centres undefined) = < 0.0001 µM (active)

Please fill in: GI50 reported for CCOC(=O)CCC1(C(=O)O[C@@H]2C[C@H](C)CC[C@H]2C(C)C)CCCCC1=O (some centres undefined) = 79.4 µM (inactive)

* * *

# Tested on: A549
# protocol_notes: NCI tumour cell line growth inhibition, 48 h
Activity calls are given as the source filed them. Cut-off read from the data, not from the text of the source: active = GI50 up to about 1.1 µM and inactive = higher.
experimental_readout: GI50

{"columns": ["compound", "experimental_result"],
 "data": [
  ["Cc1cccc(NC(=O)/C(=N\\N)C(c2cnc3ccc([N+](=O)[O-])cc3n2)[N+](=O)[O-])c1C (configuration not stated)", "> 100 µM (inactive)"],
  ["CCCc1cc(OC(=O)c2c(O)cc(OC)cc2CCC)cc(O)c1C(=O)O", "30.2 µM (inactive)"],
  ["N#CC(/C(CCC(=O)Nc1ccc(Cl)cc1)=N/NC(=O)c1cc2ccccc2cc1O)c1ccccc1 (configuration not stated)", "40.8 µM (inactive)"]
]}

Please fill in: GI50 reported for COc1cc2c(cc1OC)C(C(CO)CO)N(CC(O)CCl)CC2 (configuration not stated) = > 100 µM (inactive)

Please fill in: GI50 reported for NC(CCc1nc(-c2ccccc2)cs1)C(=O)O (configuration not stated) = > 100 µM (inactive)

Please fill in: GI50 reported for `COc1ccc2c(ccc3c(C(=O)NCCN(C)CCNC(=O)c4cn(C)c5c4ccc4cc(OC)ccc45)cn(C)c32)c1` = 1.79 µM (inactive)
